# Experiment summary: In vivo pharmacokinetic test in rats
# Set-up: species or system Wistar rats
# Condition notes: male, Wistar, rat, in vivo, iv; rats, I.V, 5 mg/kg; read-out: Vss
Measurement type: Vd (L/kg)

>>> measured_value("COCCCOc1ccnc(C[S@+]([O-])c2nc3cc4c(cc3[nH]2)OCC4)c1C")
0.289

---

# Experiment summary: In vivo pharmacokinetic test in rats
# Set-up: species or system Wistar rats
# Condition notes: male, Wistar, rat, in vivo, po, 5 mg/kg
Counter-ions that a name gives are not always drawn.
Measurement type: Tmax

>>> measured_value("COCCCOc1ccnc(C[S@@+]([O-])c2nc3cc4c(cc3[nH]2)OCC4)c1C [Compound 30 (sodium salt)]")
"4.98 to 15 min"
